src = ChEMBL document CHEMBL1629532

- tested_system: Phosphatidylinositol 4,5-bisphosphate 3-kinase catalytic subunit gamma isoform (Homo sapiens, UniProt P48736)
- Sequence (P48736 whole entry, canonical isoform): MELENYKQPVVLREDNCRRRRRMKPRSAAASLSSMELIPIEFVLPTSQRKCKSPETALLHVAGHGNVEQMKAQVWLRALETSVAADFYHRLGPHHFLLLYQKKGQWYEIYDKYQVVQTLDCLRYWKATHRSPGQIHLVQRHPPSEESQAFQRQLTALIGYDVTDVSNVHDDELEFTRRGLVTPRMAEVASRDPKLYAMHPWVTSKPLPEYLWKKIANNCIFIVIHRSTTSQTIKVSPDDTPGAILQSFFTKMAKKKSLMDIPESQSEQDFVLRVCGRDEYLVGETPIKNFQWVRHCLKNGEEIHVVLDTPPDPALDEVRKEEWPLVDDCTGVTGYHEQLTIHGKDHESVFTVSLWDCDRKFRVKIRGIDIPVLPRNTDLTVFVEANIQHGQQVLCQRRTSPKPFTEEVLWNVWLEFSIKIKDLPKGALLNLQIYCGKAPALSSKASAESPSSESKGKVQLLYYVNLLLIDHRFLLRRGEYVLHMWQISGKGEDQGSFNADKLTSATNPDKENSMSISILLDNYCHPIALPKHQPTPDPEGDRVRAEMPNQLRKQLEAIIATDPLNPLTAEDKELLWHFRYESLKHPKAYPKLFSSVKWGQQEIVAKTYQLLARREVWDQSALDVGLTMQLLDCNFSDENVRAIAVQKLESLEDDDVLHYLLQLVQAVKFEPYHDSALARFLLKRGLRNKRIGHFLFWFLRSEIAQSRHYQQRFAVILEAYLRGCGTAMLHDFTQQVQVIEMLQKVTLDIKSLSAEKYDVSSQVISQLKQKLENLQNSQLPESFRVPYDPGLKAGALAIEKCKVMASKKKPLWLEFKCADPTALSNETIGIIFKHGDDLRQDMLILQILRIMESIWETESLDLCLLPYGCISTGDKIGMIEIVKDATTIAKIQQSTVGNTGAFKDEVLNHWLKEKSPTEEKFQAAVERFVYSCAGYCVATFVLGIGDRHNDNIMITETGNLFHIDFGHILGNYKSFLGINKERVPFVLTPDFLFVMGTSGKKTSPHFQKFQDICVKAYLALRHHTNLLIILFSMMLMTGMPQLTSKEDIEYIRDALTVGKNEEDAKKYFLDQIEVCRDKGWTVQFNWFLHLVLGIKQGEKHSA
- method_summary: Inhibition of PI3Kgamma
pIC50: −log10 of the molar value.
measured_quantity: pIC50

# annotated cases, reported pIC50 shown
[[record]]
cpd_smiles = "C(#Cc1n[nH]c2ccccc12)c1ccncc1"
observed_value = 4.40

[[record]]
cpd_smiles = "Nc1cccc(C#Cc2n[nH]c3ccccc23)c1"
observed_value = "< 4.00"


Turning now to a further record.
Fill in the blank: the reported pIC50 of "Nc1ccc(C#Cc2n[nH]c3ccccc23)cc1" is ____. < 4.00

* * *

- tested_system: Phosphatidylinositol 4,5-bisphosphate 3-kinase catalytic subunit delta isoform (Homo sapiens, UniProt O00329)
- Sequence (O00329 whole entry, canonical isoform): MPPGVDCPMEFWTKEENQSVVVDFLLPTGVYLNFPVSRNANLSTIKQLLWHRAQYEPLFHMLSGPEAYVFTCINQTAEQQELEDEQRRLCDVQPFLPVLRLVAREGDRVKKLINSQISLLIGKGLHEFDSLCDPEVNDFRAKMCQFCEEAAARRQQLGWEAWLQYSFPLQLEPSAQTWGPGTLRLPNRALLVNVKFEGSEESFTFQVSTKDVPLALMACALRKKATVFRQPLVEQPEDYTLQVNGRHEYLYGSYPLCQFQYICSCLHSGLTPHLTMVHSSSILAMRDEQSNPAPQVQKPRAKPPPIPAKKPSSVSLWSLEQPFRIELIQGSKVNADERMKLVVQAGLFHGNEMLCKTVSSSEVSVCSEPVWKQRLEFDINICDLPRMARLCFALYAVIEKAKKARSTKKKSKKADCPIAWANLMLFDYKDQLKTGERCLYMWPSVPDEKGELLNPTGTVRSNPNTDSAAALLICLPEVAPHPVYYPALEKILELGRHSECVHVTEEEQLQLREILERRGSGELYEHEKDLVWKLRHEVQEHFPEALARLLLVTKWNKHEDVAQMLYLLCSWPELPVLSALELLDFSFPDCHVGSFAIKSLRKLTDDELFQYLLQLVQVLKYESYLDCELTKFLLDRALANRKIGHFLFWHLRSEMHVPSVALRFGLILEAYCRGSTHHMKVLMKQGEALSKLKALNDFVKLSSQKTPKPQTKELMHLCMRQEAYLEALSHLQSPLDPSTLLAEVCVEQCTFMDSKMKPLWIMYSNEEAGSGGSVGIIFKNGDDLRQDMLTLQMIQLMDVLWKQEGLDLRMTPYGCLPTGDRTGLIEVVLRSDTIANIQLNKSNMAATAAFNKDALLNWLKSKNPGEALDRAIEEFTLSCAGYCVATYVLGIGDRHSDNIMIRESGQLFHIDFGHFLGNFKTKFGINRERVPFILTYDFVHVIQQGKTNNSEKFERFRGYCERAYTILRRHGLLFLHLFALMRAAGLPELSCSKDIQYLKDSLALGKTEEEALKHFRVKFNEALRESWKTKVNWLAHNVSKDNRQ
- method_summary: Inhibition of PI3Kdelta
- recorded_conditions: read-out: IC50
pIC50: −log10 of the molar value.
measured_quantity: pIC50

[[record]]
cpd_smiles = "Nc1ccc(C#Cc2n[nH]c3ccccc23)cc1"
observed_value = "< 4.00"


Turning now to a further record.
Fill in the blank: the reported pIC50 of "Nc1cccc(C#Cc2n[nH]c3ccccc23)c1" is ____. < 4.00
